# maps each entry to its nuclei count
# ASSAY_TEXT: inhibitors of mutant huntingtin aggregation, primary screen, imaging, exon1htt(103Q)mCFP cells, high-content imaging (AID 483);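 further: compound exposure lasted 3 days before fixation; percent of the per-plate median nuclei count of sample wells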
# MEASUREMENT_PARAMETERS: exon1htt(103Q)mCFP cell line, aggregate imaging, at 2 µM; measured here: cell count, toxicity
QUANTITY: nuclei count (%)

[[record]]
compound = "CC(C)OC(=O)C(CC(=O)O)NCc1ccccc1 (stereo not drawn)"
unit_tag = "%"
recorded_measurement = 65.3

[[record]]
compound = "C[C@]12CC[C@@H]3c4ccc(O)cc4CC[C@H]3[C@@H]1CCC2=O"
unit_tag = "%"
recorded_measurement = 98

[[record]]
compound = "Nc1nc(Cl)nc2c1ncn2[C@@H]1O[C@H](CO)[C@@H](O)[C@H]1O"
unit_tag = "%"
recorded_measurement = 88.7

[[record]]
compound = "CC(C)C1Cc2c(C#N)c(N)sc(=S)c2CO1 (stereo not drawn)"
unit_tag = "%"
recorded_measurement = 102

[[record]]
compound = "COc1ccc2c(c1)[nH]c1c(=O)n(CC3CCCO3)cnc12 (stereo not drawn)"
unit_tag = "%"
recorded_measurement = 73.4

[[record]]
compound = "CC(CCc1ccccc1)NCC(O)c1ccc(O)c(C(N)=O)c1 (stereo not drawn)"
unit_tag = "%"
recorded_measurement = 103

[[record]]
compound = "CCN(CCCc1ccccc1)CCCc1ccccc1"
unit_tag = "%"
recorded_measurement = 95.6

[[record]]
compound = "OC(CCN1CCCC1)(c1ccccc1)C1CCCCC1 (stereo not drawn)"
unit_tag = "%"
recorded_measurement = 114

[[record]]
compound = "CCCC1Cc2c(sc3ncnc(N)c23)CO1 (stereo not drawn)"
unit_tag = "%"
recorded_measurement = 80.5

[[record]]
compound = "c1ccc(-c2nnc(OCCN3CCOCC3)c3ccccc23)cc1"
unit_tag = "%"
recorded_measurement = 114

[[record]]
compound = "Cc1cc(C)n(CC2CC(=O)N(c3ccc(Cl)c(Cl)c3)C2=O)n1 (stereo not drawn)"
unit_tag = "%"
recorded_measurement = 104

[[record]]
compound = "Cc1nnc(NCc2n[nH]c(=O)c3ccccc23)c2ccccc12"
unit_tag = "%"
recorded_measurement = 51.5

[[record]]
compound = "CC1(C)S[C@@H]2[C@H](NC(=O)C(C(=O)O)c3ccccc3)C(=O)N2[C@H]1C(=O)O (stereo partly drawn)"
unit_tag = "%"
recorded_measurement = 99.1

[[record]]
compound = "CCOc1ccc(S(=O)(=O)N(C)C)cc1-c1nc2c(C(C)(C)C)nn(C)c2c(=O)[nH]1"
unit_tag = "%"
recorded_measurement = 107

[[record]]
compound = "CC(O)Cn1cnc2c1c(=O)n(C)c(=O)n2C (stereo not drawn)"
unit_tag = "%"
recorded_measurement = 99.1

[[record]]
compound = "COc1ccc2nc(S(=O)Cc3ncc(C)c(OC)c3C)[nH]c2c1 (stereo not drawn)"
unit_tag = "%"
recorded_measurement = 97.5

[[record]]
compound = "CCOC(=O)CCC(=O)O[C@H]1[C@H](O[C@@H]2[C@@H](C)[C@H](O[C@H]3C[C@@](C)(OC)[C@@H](O)[C@H](C)O3)[C@@H](C)C(=O)O[C@H](CC)[C@@](C)(O)[C@H](O)[C@@H](C)C(=O)[C@H](C)C[C@@]2(C)O)O[C@H](C)C[C@@H]1N(C)C"
unit_tag = "%"
recorded_measurement = 105

[[record]]
compound = "CC(=Nc1cccc(O)c1)c1sc2ccccc2c1O"
unit_tag = "%"
recorded_measurement = 96.4

[[record]]
compound = "Cc1csc(NC(=O)CSc2nsc(SCC(=O)Nc3nc(C)cs3)c2C#N)n1"
unit_tag = "%"
recorded_measurement = 105

[[record]]
compound = "COCCNC(=O)c1c(N)n(CCC2=CCCCC2)c2nc3ccccc3nc12"
unit_tag = "%"
recorded_measurement = 101

[[record]]
compound = "CS(=O)(=O)Nc1ccc([N+](=O)[O-])cc1Oc1ccccc1"
unit_tag = "%"
recorded_measurement = 95.3

[[record]]
compound = "Cn1c2c(c(=O)n(C)c1=O)C(NC(=O)C(C)(C)C)(C(F)(F)F)C(=O)N2 (stereo not drawn)"
unit_tag = "%"
recorded_measurement = 103

[[record]]
compound = "Cc1ccc(C)c(OCCCC(C)(C)C(=O)O)c1"
unit_tag = "%"
recorded_measurement = 107

[[record]]
compound = "C(=N\\n1cnnc1)/c1cccnc1"
unit_tag = "%"
recorded_measurement = 76.7

[[record]]
compound = "Cc1cc(NC(=O)C2=C(O)c3ccccc3S(=O)(=O)N2C)no1"
unit_tag = "%"
recorded_measurement = 108

[[record]]
compound = "CCCNC(=O)NS(=O)(=O)c1ccc(Cl)cc1"
unit_tag = "%"
recorded_measurement = 84.6

[[record]]
compound = "Cc1oc2cc(O)ccc2c(=O)c1-c1cnn(-c2ccccc2)c1"
unit_tag = "%"
recorded_measurement = 102

[[record]]
compound = "COC1=CC(=O)CC(C)C12Oc1c(Cl)c(OC)cc(OC)c1C2=O (stereo not drawn)"
unit_tag = "%"
recorded_measurement = 105

[[record]]
compound = "CC(NCCC(c1ccccc1)c1ccccc1)c1ccccc1 (stereo not drawn)"
unit_tag = "%"
recorded_measurement = 104

[[record]]
compound = "C=CCn1cnc2c(c1=O)c1nc3ccccc3nc1n2-c1ccc(C)cc1"
unit_tag = "%"
recorded_measurement = 100

[[record]]
compound = "Cc1cccc(N2C(=O)CC(N3CCN(Cc4ccc(Cl)cc4)CC3)C2=O)c1 (stereo not drawn)"
unit_tag = "%"
recorded_measurement = 110

[[record]]
compound = "O=c1c2ccccc2[nH]c(=S)n1CCN1CCC(=C(c2ccc(F)cc2)c2ccc(F)cc2)CC1"
unit_tag = "%"
recorded_measurement = 92.5

[[record]]
compound = "CCOc1nc(-c2ccncc2)nc2ccccc12"
unit_tag = "%"
recorded_measurement = 13.3


* * *

# TESTED_ON: Solute carrier family 12 member 5 (Homo sapiens) (UniProt Q9H2X9)
# Sequence (Q9H2X9 whole entry, looked up): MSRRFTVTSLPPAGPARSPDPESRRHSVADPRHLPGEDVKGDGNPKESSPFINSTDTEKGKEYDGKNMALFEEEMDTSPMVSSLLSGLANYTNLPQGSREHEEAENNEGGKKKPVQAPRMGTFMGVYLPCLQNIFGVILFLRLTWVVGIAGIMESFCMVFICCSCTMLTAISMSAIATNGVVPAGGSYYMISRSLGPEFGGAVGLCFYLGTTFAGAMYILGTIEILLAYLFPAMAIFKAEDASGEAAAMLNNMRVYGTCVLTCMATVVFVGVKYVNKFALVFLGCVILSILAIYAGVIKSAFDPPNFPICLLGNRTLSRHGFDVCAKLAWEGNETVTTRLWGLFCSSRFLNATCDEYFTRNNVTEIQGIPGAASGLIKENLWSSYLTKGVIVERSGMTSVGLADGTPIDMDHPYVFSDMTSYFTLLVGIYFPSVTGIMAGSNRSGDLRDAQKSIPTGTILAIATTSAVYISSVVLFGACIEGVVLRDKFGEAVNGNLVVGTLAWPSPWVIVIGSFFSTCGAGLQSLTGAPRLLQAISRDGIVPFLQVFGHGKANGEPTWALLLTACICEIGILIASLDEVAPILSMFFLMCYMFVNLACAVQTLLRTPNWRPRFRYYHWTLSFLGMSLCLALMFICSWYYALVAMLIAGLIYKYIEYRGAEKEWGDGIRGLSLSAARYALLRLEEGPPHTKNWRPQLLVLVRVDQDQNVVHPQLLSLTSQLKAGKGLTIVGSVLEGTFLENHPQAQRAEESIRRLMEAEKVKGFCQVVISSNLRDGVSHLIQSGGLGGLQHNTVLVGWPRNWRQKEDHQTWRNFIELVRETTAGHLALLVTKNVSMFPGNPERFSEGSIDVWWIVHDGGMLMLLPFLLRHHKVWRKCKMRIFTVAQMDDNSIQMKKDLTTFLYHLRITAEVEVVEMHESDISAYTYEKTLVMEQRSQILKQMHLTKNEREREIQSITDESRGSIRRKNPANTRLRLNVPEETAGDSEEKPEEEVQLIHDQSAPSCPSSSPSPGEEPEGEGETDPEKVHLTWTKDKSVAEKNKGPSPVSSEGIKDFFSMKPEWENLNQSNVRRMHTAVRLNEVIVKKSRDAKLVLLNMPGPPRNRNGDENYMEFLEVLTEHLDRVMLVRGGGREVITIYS
# ASSAY_TEXT: KCC2 modulators without ouabain present, confirmation, cell-based, HEK293 KCC2, thallium flux, FluoZin2, secondary assay 2 (AID 1715);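 further: raw slope with 0.1% DMSO as baseline and bumetanide as block control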
# MEASUREMENT_PARAMETERS: HEK293-KCC2, thallium flux FluoZin2 fluorescence; at 10 µM; actives lie on both sides; F/F0 rise rate, 10–20 s post-thallium
This is one part of the list. Records with an inconclusive call do not appear. Active and inactive are the calls of the source.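 How the source made its calls: active means thallium flux slope more than 3 SD above or below the plate's solvent-only control mean, mostly below; inconclusive means the two repeat wells disagreed; inactive means no significant shift from solvent-only controls.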
Possible outcomes: active, inactive

[[record]]
compound = "Cc1nc(SCc2ccc(F)cc2)c([N+](=O)[O-])[nH]1"
assigned_label = "active"

[[record]]
compound = "CCC(C)Cn1c(O)cc2nn(-c3nc4ccccc4s3)c(=O)c-2c1C (centres undefined)"
assigned_label = "active"

[[record]]
compound = "N=c1oc2ccccc2cc1C(=O)N/N=C/c1ccccc1"
assigned_label = "inactive"

[[record]]
compound = "COc1ccc(Cl)cc1S(=O)(=O)Nc1cccc(C(=O)O)c1"
assigned_label = "inactive"


* * *

# ASSAY_TEXT: inhibitors of E-selectin induction by TNFa, primary screen, imaging, HUVEC, immunofluorescence, MLSMR starter and 10KST1 sets (AID 487);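 further: 100% = median nuclei count of all wells on the same plate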
# MEASUREMENT_PARAMETERS: HUVEC TNFalpha-induced E-selectin immunofluorescence imaging, at 2 µM; measured here: cell number, toxicity
QUANTITY: nuclei count (%)

[[record]]
compound = "COc1ccc(/C(O)=C2\\C(=O)C(=O)N(c3cc(C)on3)C2c2cccc(OC)c2OC)cc1C (stereo not given)"
unit_tag = "%"
recorded_measurement = 129

[[record]]
compound = "Cc1cccc(C)c1NC(=O)CSCC(=O)c1ccc(O)c(O)c1"
unit_tag = "%"
recorded_measurement = 158

[[record]]
compound = "COc1cc(-c2nn3c(COc4ccccc4)nnc3s2)cc(OC)c1OC"
unit_tag = "%"
recorded_measurement = 105

[[record]]
compound = "CCN(CC)c1ccc(-c2nn3c(-c4cccnc4)nnc3s2)cc1"
unit_tag = "%"
recorded_measurement = 120

[[record]]
compound = "O/N=C(\\c1ccc2c(c1)OCCO2)C1CCCCC1"
unit_tag = "%"
recorded_measurement = 88.1

[[record]]
compound = "COc1ccc(OC)c(NC(=O)CSc2nnc(-c3ccco3)n2-c2ccc(C(=O)O)cc2)c1"
unit_tag = "%"
recorded_measurement = 158

[[record]]
compound = "N/C(CCCN1CCCCC1)=N/O"
unit_tag = "%"
recorded_measurement = 108

[[record]]
compound = "CC(C)(C)NCc1cc2ccccc2[nH]c1=O"
unit_tag = "%"
recorded_measurement = 146

[[record]]
compound = "COC(=O)CC1=NC(=O)CS1"
unit_tag = "%"
recorded_measurement = 164

[[record]]
compound = "Cc1c(O)c(CN2CCCCC2)cc2c3c(c(=O)oc12)CCC3"
unit_tag = "%"
recorded_measurement = 130

[[record]]
compound = "O=C(NCCN1CCOCC1)c1cc2n(n1)C(C(F)(F)F)CC(c1ccc(F)cc1)N2 (stereo not given)"
unit_tag = "%"
recorded_measurement = 104

[[record]]
compound = "Oc1ccc(/C=C/c2cc(O)cc(O)c2)cc1"
unit_tag = "%"
recorded_measurement = 118

[[record]]
compound = "CCOC(=O)CSc1nc(NC#N)nc(N(CC)CC)n1"
unit_tag = "%"
recorded_measurement = 165

[[record]]
compound = "O=C(O)CC(NCc1ccco1)C(=O)OCCc1ccccc1 (stereo not given)"
unit_tag = "%"
recorded_measurement = 116

[[record]]
compound = "O=C(Nc1ccc2c(c1)OCCO2)c1ccc(Br)o1"
unit_tag = "%"
recorded_measurement = 143

[[record]]
compound = "CCC[C@@H]1C[C@@H](C(=O)N[C@H]([C@@H](C)O)[C@H]2O[C@H](SC)[C@H](O)[C@@H](O)C2O)N(C)C1 (stereo not given in full)"
unit_tag = "%"
recorded_measurement = 123

[[record]]
compound = "Cc1ccccc1NC(=O)NCCc1nc2ccccc2[nH]1"
unit_tag = "%"
recorded_measurement = 163

[[record]]
compound = "CCC1(C)Cc2c(sc3c2c(=O)n(C)c2nnc(SCc4ccccc4)n32)CO1 (stereo not given)"
unit_tag = "%"
recorded_measurement = 156

[[record]]
compound = "Cc1ccc(OCc2nnc(NC(=O)c3ccco3)s2)c(C)c1"
unit_tag = "%"
recorded_measurement = 106

[[record]]
compound = "COC(=O)CCc1c(C)[nH]c(C(=O)OCc2ccccc2)c1C"
unit_tag = "%"
recorded_measurement = 179

[[record]]
compound = "C=CCNc1nc(-c2cccc(OC)c2O)nc2ccccc12"
unit_tag = "%"
recorded_measurement = 101

[[record]]
compound = "CCOC(=O)c1c(C(F)(F)C(F)(F)C(F)(F)C(F)(F)F)n[nH]c1C"
unit_tag = "%"
recorded_measurement = 128

[[record]]
compound = "Fc1ccc2[nH]c3c(N4CCN(Cc5ccc6c(c5)OCO6)CC4)ncnc3c2c1"
unit_tag = "%"
recorded_measurement = 169

[[record]]
compound = "Cc1cccc(OCc2nc(C)cc(=O)[nH]2)c1"
unit_tag = "%"
recorded_measurement = 173

[[record]]
compound = "O=C(c1ccc(=O)oc1)N1CCOCC1"
unit_tag = "%"
recorded_measurement = 167

